Data origin, for the record: PubChem BioAssay (NCI)

Tested on: OVCAR-3 ovarian
Experiment: NCI tumour cell line growth inhibition, 48 h
Reported TGI is given for each of the following molecules.

| molecule | TGI |
| --- | --- |
| CC1COC(C)(C)P(=O)(c2ccccc2)C1 (stereo not given) | > 100 µM |
| CCCO/S(=N\S(=O)(=O)c1ccccc1)c1ccccc1[N+](=O)[O-] (stereo not given) | > 100 µM |
| O=C(O)c1ccc(OCc2ccccc2)c(Cl)c1 | > 100 µM |
| CCCCCCOc1ccc(Nc2c(O)c3c(c(O)c2Cl)C(=O)C=CC3=O)cc1 | 4.77 µM |
| O=CN1CCN(CC(O)CN2CCCCC2)CC1 (stereo not given) | > 100 µM |

Problem: API: value(readout=TGI, system=OVCAR-3 ovarian) for record Cc1cc(C)c(NC(=O)c2sc3nc4c(cc3c2N)CN(Cc2ccccc2)CC4)c(C)c1
Solution: 12.6 µM

Problem: Form field: TGI recorded for CC(=O)N(CCc1ccccc1)C(C#N)c1ccccc1 (stereo not given) with OVCAR-3 ovarian (enter value)
Solution: > 100 µM

Problem: Lab note: need TGI for CC(C)N(C(=O)C1(O)c2ccccc2C=Cc2ccccc21)C(C)C on OVCAR-3 ovarian, anyone have it?
Solution: 31.3 µM

Problem: Notebook: pull reported TGI for OVCAR-3 ovarian, entry COC(=O)[C@H](Cc1c[nH]c2ccccc12)NC(=O)c1ccc(CNC(=O)/C(C)=C/c2ccccc2)cc1
Solution: > 100 µM

Problem: Param readout = TGI; param system = OVCAR-3 ovarian; param query = O=C(O)CC(NC(=O)CP(=O)(O)O)C(=O)O (stereo not given) ; response: value
Solution: > 10000 µM

* * *

# reported TGI; entries follow
Tested on: HT29 colon
Assay: NCI tumour cell line growth inhibition, 48 h
Number only, in µM; omit the unit.

Before answering, review these 3 worked examples.
| compound | assay system | property | value reported |
| --- | --- | --- | --- |
| CN1C(=O)/C(=C/c2c(Cl)n(C)c3ccccc23)c2ccccc21 | HT29 colon | TGI | 17.8 |
| COc1cc(OC)c(/C=C/c2c3ccccc3cc[n+]2C)c(OC)c1 | HT29 colon | TGI | 10.3 |
| O=C1NC(=O)/C(=C\c2ccccc2)C2=C1CCCC2 | HT29 colon | TGI | 44.1 |

Please find the next compound below.
Problem: Form field: reported TGI of CCOC(=O)C1(C/C=C/CBr)CCc2ccccc2C1=O (stereo unspecified)
Solution: 52.3

* * *

System: SN12C renal
Assay: NCI tumour cell line growth inhibition, 48 h
Below: a set of entries, each annotated with reported TGI.

| compound | assay system | TGI |
| --- | --- | --- |
| COc1ccc(-c2nc(-c3cc4c(ccc5ccccc54)oc3=O)cs2)cc1 | SN12C renal | > 100 µM |

Problem: # get_value(readout='TGI', item= CN1C(=O)/C(=C/c2c(Cl)n(C)c3ccccc23)c2ccccc21 )
Solution: 9.33 µM

Problem: Reported TGI, compound CCC(=O)O[C@H]1CC[C@H]2[C@@H]3CCC4=C/C(=N/OC(=O)c5cccc6c(=O)c7ccccc7[nH]c56)CC[C@]4(C)[C@H]3CC[C@]12C : ____
Solution: > 100 µM

Problem: Recorded TGI of CCOC(=O)CO/N=C1/C(c2c(O)[nH]c3ccccc23)=Nc2ccccc21 , please.
Solution: > 100 µM

Problem: Report TGI for CCCCSC1=N/C(=C\c2ccco2)C(Cl)=N1 please.
Solution: > 100 µM

Problem: Entry COc1ncc(-c2ccc3ncnc(Nc4cccc(Cl)c4)c3c2)cc1NS(=O)(=O)C1CC1 has what TGI?
Solution: > 100 µM

Problem: // query TGI value for entry CC(=O)Oc1ccc2c(c1)c1c(=O)oc(C)nc1n2Cc1ccccc1
Solution: > 100 µM

Problem: Which TGI is listed for CN[C@@H](C)[C@@H](NC)c1ccccc1 ?
Solution: > 100 µM

Problem: Requested read-out: TGI. Entry: CC1=CCC(C)=Nc2nc3ccccc3n21
Solution: > 100 µM

* * *

System: MOLT-4 leukemia
Test: NCI tumour cell line growth inhibition, 48 h
property: TGI

The following compounds have reported results that may help.
| compound | TGI |
| --- | --- |
| CCCN1CN(C(C(=O)N[C@@H]2C(=O)N3C2SC(C)(C)C3C(=O)O)c2ccc(O)cc2)CSC1=S (stereo partly drawn) | > 100 µM |
| NC(=O)c1cc(S(=O)(=O)Nc2nnc(-c3ccccc3)c(-c3ccccc3)n2)c(SCc2ccccc2)cc1Cl | > 70.1 µM |

Problem: Field request: TGI | item: Cc1cc(C)c(C(=O)c2nnc3ccccc3c2N)c(C)c1
Solution: > 100 µM

* * *

Test system: UACC-62 melanoma
Assay: NCI tumour cell line growth inhibition, 48 h
property: TGI

| molecule | TGI |
| --- | --- |
| CCCOc1ccc2sc(NC(=O)OC)nc2c1 | > 100 µM |
| CCCO/S(=N\S(=O)(=O)c1ccccc1)c1ccccc1[N+](=O)[O-] (stereo not given) | > 100 µM |
| COc1cc(N(CCC#N)CCC#N)ccc1/C(N=Nc1ccccc1C)=N\NC(=O)c1ccc(C)cc1 | > 100 µM |
| Cc1cc(S(=O)(=O)O)c(NC(=O)C(=O)Cc2cc(=O)oc3cc(O)ccc23)cc1Cl | > 100 µM |
| O=C(N[C@@H](c1ccccc1)[C@@H](O)C(=O)OCc1ccc([N+](=O)[O-])cc1)c1ccccc1 | > 100 µM |
| O=C1NC(=O)C(c2cccc([N+](=O)[O-])c2)=C1Nc1cc(Cl)c(O)c(Cl)c1 | > 25 µM |
| C=C1C(=O)OC2CC(C)C3(O)CCC(=O)C3(C)CC12 (stereo not given) | > 100 µM |
| C#COc1cccc(Nc2c(C#N)cnc3ncc(NC(=O)CCl)cc23)c1 | > 62.5 µM |
| COc1cc(C(C)=O)cc(C(=O)N(C(C)C)C(C)C)c1[Si](C)(C)C | > 100 µM |

Problem: Field request: TGI | item: O=C(NCCCl)N(O)C(=O)Nc1ccccc1
Solution: > 100 µM

* * *

Tested on: U251 CNS
Experiment: NCI tumour cell line growth inhibition, 48 h
Here the recorded TGI is given for each entry.

Some solved cases for reference:
| compound | property | value reported |
| --- | --- | --- |
| CC(=O)Oc1ccc2c(c1)c1c(=O)oc(C)nc1n2Cc1ccccc1 | TGI | > 100 µM |
| Cc1nc2ccc(NC(=S)Nc3ccccc3)cc2c(=O)n1-c1ccccc1 | TGI | > 100 µM |
| c1ccc(NN=C(c2ccccn2)c2ccccn2)nc1 | TGI | > 61.9 µM |

Problem: For the compound shown here, CCOC(=O)c1c(NC(=O)OC)c(C#N)c2n1CCCCC2 , give the reported TGI.
Solution: > 100 µM

Problem: Given the compound c1ccc2c(c1)c1c(c3ccccc32)CN2CCCC2C1 (stereo not given) , what is its reported TGI?
Solution: 23.1 µM

Problem: Please give the measured TGI for this compound: O=C1C=CC(=O)c2c1ccc1c3ccccc3n(-c3cccc([N+](=O)[O-])c3)c21
Solution: > 10 µM

* * *

Overview of recorded GI50 for various molecules
System: HOP-62 NSCLC
Experiment: NCI tumour cell line growth inhibition, 48 h

| smiles record | property | value reported |
| --- | --- | --- |
| NC(=O)c1cc(S(=O)(=O)Nc2nnc(-c3ccccc3)c(-c3ccccc3)n2)c(SCc2ccccc2)cc1Cl | GI50 | > 100 µM |
| CCCCCOc1ccc(/C=N/Nc2cc(C)nc3ccc(Br)cc23)cc1 | GI50 | 1.73 µM |
| CCn1c(=O)c2c(=O)c3c4c(oc3oc2c2ccccc21)C(=O)c1ccccc1C4=O | GI50 | > 21.6 µM |

// below: GI50 requested for another molecule
Problem: I am curious: what GI50 value has been reported for CCOC(=O)c1c(NC(=O)c2cccc(C(F)(F)F)c2)sc2c(CN(C)C)c(O)ccc12 ?
Solution: 13.8 µM

* * *

System: HT29 colon
Assay: NCI tumour cell line growth inhibition, 48 h
Examples of compounds with documented GI50 follow.

Known GI50 results, listed for orientation:
| compound | assay system | value reported |
| --- | --- | --- |
| N#Cc1c(N/N=C/c2ccc(Cl)cc2Cl)nc(N)nc1N1CCCC1 | HT29 colon | 37.1 µM |
| COc1ccc(O)c(C(=O)c2ccc(C(=O)N[C@H]3CCCNC[C@@H]3NC(=O)c3ccncc3)cc2)c1F | HT29 colon | 16.3 µM |

Problem: # input compound: O=C1NC(=O)/C(=C\c2ccccc2)C2=C1CCCC2 ; wanted: its GI50
Solution: 14.9 µM

Problem: Give its GI50 value. Item: N#CC1=C(N)Oc2cc(O)ccc2C1c1cccc2ccccc12 (centres undefined)
Solution: 8.89 µM
